System: K562
experimentNotes: Antiproliferative activity against human K562 cells at 10 uM after 48 hrs by trypan blue assay
Assay type: functional
conditionSet: K562, 48 h, read-out: GI
Recorded inhibition of growth at 10 µM, one value per entry.
readoutLabel: inhibition of growth at 10 µM (%)

compoundStructure	readoutLabel	testValue
COc1cc2c(c(OC)c1OC)-c1ccc(OC)c(=O)cc1[C@@H](NC(C)=O)CC2	inhibition of growth at 10 µM	63.6
NC(=O)c1cc(Cl)ccc1NC(=O)/C=C/c1cccc(Br)c1	inhibition of growth at 10 µM	27
NC(=O)c1cc(Br)ccc1NC(=O)/C=C/c1ccccc1	inhibition of growth at 10 µM	62.4
Cc1ccccc1/C=C/C(=O)Nc1ccc(I)cc1C(N)=O	inhibition of growth at 10 µM	26.3
NC(=O)c1cc(Cl)ccc1NC(=O)/C=C/c1ccccc1Cl	inhibition of growth at 10 µM	58
NC(=O)c1cc(I)ccc1NC(=O)/C=C/c1ccccc1Cl	inhibition of growth at 10 µM	74.1
Cc1ccccc1/C=C/C(=O)Nc1ccc(Cl)cc1C(N)=O	inhibition of growth at 10 µM	52.2
NC(=O)c1cc(Br)ccc1NC(=O)/C=C/c1ccccc1Cl	inhibition of growth at 10 µM	59
NC(=O)c1cc(Cl)ccc1NC(=O)/C=C/c1ccccc1Br	inhibition of growth at 10 µM	49
NC(=O)c1cc(I)ccc1NC(=O)/C=C/c1ccccc1	inhibition of growth at 10 µM	74.5
NC(=O)c1cc(Br)ccc1NC(=O)/C=C/c1ccccc1Br	inhibition of growth at 10 µM	46.2
NC(=O)c1ccccc1NC(=O)/C=C/c1ccccc1	inhibition of growth at 10 µM	14.2
NC(=O)c1cc(Br)ccc1NC(=O)/C=C/c1ccc(Cl)cc1	inhibition of growth at 10 µM	22
NC(=O)c1cc(Cl)ccc1NC(=O)/C=C/c1cccc(Cl)c1	inhibition of growth at 10 µM	28.2
Cc1ccc(NC(=O)/C=C/c2ccccc2)c(C(N)=O)c1	inhibition of growth at 10 µM	65.4
NC(=O)c1cc(Cl)ccc1NC(=O)/C=C/c1ccc(Cl)cc1	inhibition of growth at 10 µM	31
NC(=O)c1cc(Br)ccc1NC(=O)/C=C/c1cccc(Cl)c1	inhibition of growth at 10 µM	25.5
NC(=O)c1cc(Br)ccc1NC(=O)/C=C/c1cccc(Br)c1	inhibition of growth at 10 µM	45.9
NC(=O)c1cc(Cl)ccc1NC(=O)/C=C/c1ccccc1	inhibition of growth at 10 µM	64
Cc1ccc(/C=C/C(=O)Nc2ccc(Cl)cc2C(N)=O)cc1	inhibition of growth at 10 µM	64
Cc1ccccc1/C=C/C(=O)Nc1ccc(Br)cc1C(N)=O	inhibition of growth at 10 µM	43.2
Cc1ccc(/C=C/C(=O)Nc2ccc(Br)cc2C(N)=O)cc1	inhibition of growth at 10 µM	45.9
Cc1cccc(/C=C/C(=O)Nc2ccc(Br)cc2C(N)=O)c1	inhibition of growth at 10 µM	43.8
Cc1cccc(/C=C/C(=O)Nc2ccc(Cl)cc2C(N)=O)c1	inhibition of growth at 10 µM	37.8
